# condition notes: in methyl acetate, 283.12 K
quantity kind: solubility (mole fraction)
Give your answer as a number; write no unit.

Inquiry: Give me measured solubility (mole fraction), please, for this compound: c1ccc(-c2ccc(C(c3ccccc3)n3ccnc3)cc2)cc1 (stereo unspecified)
Reply text: 0.00263

---

# condition notes: in acetonitrile, 318.14 K
quantity kind: solubility (mole fraction)
Give your answer as a number; write no unit.

Inquiry: Give me measured solubility (mole fraction), please, for this compound: c1ccc(-c2ccc(C(c3ccccc3)n3ccnc3)cc2)cc1 (stereo unspecified)
Reply text: 0.00541

---

# condition notes: in ethanol, 303.17 K
quantity kind: solubility (mole fraction)
Give your answer as a number; write no unit.

Inquiry: Give me measured solubility (mole fraction), please, for this molecule: c1ccc(-c2ccc(C(c3ccccc3)n3ccnc3)cc2)cc1 (stereo unspecified)
Reply text: 0.0064

---

# condition notes: in n-propyl acetate, 298.14 K
quantity kind: solubility (mole fraction)
Give your answer as a number; write no unit.

Inquiry: Give me measured solubility (mole fraction), please, for this compound: c1ccc(-c2ccc(C(c3ccccc3)n3ccnc3)cc2)cc1 (stereo unspecified)
Reply text: 0.00433

---

# condition notes: in n-propyl acetate, 293.09 K
quantity kind: solubility (mole fraction)

Inquiry: Give me measured solubility (mole fraction), please, for this compound: c1ccc(-c2ccc(C(c3ccccc3)n3ccnc3)cc2)cc1 (stereo unspecified)
Reply text: 0.00342

---

# condition notes: in methyl acetate, 323.13 K
quantity kind: solubility (mole fraction)
Give your answer as a number; write no unit.

Inquiry: Give me measured solubility (mole fraction), please, for this compound: c1ccc(-c2ccc(C(c3ccccc3)n3ccnc3)cc2)cc1 (stereo unspecified)
Reply text: 0.013

---

# condition notes: in DMF, 318.13 K
quantity kind: solubility (mole fraction)
Give your answer as a number; write no unit.

Inquiry: Give me measured solubility (mole fraction), please, for this molecule: c1ccc(-c2ccc(C(c3ccccc3)n3ccnc3)cc2)cc1 (stereo unspecified)
Reply text: 0.0482

---

# condition notes: in ethyl acetate, 308.12 K
quantity kind: solubility (mole fraction)

Inquiry: Give me measured solubility (mole fraction), please, for this molecule: c1ccc(-c2ccc(C(c3ccccc3)n3ccnc3)cc2)cc1 (stereo unspecified)
Reply text: 0.00724

---

# condition notes: in n-propanol, 283.12 K
quantity kind: solubility (mole fraction)

Inquiry: Give me measured solubility (mole fraction), please, for this compound: c1ccc(-c2ccc(C(c3ccccc3)n3ccnc3)cc2)cc1 (stereo unspecified)
Reply text: 0.00381

---

# condition notes: in methyl acetate, 313.18 K
quantity kind: solubility (mole fraction)
Give your answer as a number; write no unit.

Inquiry: Give me measured solubility (mole fraction), please, for this compound: c1ccc(-c2ccc(C(c3ccccc3)n3ccnc3)cc2)cc1 (stereo unspecified)
Reply text: 0.00926

---

# condition notes: in n-pentanol, 288.13 K
quantity kind: solubility (mole fraction)
Give your answer as a number; write no unit.

Inquiry: Give me measured solubility (mole fraction), please, for this compound: c1ccc(-c2ccc(C(c3ccccc3)n3ccnc3)cc2)cc1 (stereo unspecified)
Reply text: 0.00581

---

# condition notes: in isobutanol, 298.12 K
quantity kind: solubility (mole fraction)
Give your answer as a number; write no unit.

Inquiry: Give me measured solubility (mole fraction), please, for this molecule: c1ccc(-c2ccc(C(c3ccccc3)n3ccnc3)cc2)cc1 (stereo unspecified)
Reply text: 0.00659

---

# condition notes: in sec-butanol, 308.12 K
quantity kind: solubility (mole fraction)
Give your answer as a number; write no unit.

Inquiry: Give me measured solubility (mole fraction), please, for this molecule: c1ccc(-c2ccc(C(c3ccccc3)n3ccnc3)cc2)cc1 (stereo unspecified)
Reply text: 0.00841

---

# condition notes: in acetonitrile, 293.15 K
quantity kind: solubility (mole fraction)
Give your answer as a number; write no unit.

Inquiry: Give me measured solubility (mole fraction), please, for this compound: c1ccc(-c2ccc(C(c3ccccc3)n3ccnc3)cc2)cc1 (stereo unspecified)
Reply text: 0.00176

---

# condition notes: in methyl acetate, 298.19 K
quantity kind: solubility (mole fraction)

Inquiry: Give me measured solubility (mole fraction), please, for this compound: c1ccc(-c2ccc(C(c3ccccc3)n3ccnc3)cc2)cc1 (stereo unspecified)
Reply text: 0.00509

---

# condition notes: in n-pentanol, 283.1 K
quantity kind: solubility (mole fraction)
Give your answer as a number; write no unit.

Inquiry: Give me measured solubility (mole fraction), please, for this compound: c1ccc(-c2ccc(C(c3ccccc3)n3ccnc3)cc2)cc1 (stereo unspecified)
Reply text: 0.00445

---

# condition notes: in n-butyl acetate, 293.14 K
quantity kind: solubility (mole fraction)
Give your answer as a number; write no unit.

Inquiry: Give me measured solubility (mole fraction), please, for this molecule: c1ccc(-c2ccc(C(c3ccccc3)n3ccnc3)cc2)cc1 (stereo unspecified)
Reply text: 0.00285

---

# condition notes: in isobutanol, 308.15 K
quantity kind: solubility (mole fraction)
Give your answer as a number; write no unit.

Inquiry: Give me measured solubility (mole fraction), please, for this molecule: c1ccc(-c2ccc(C(c3ccccc3)n3ccnc3)cc2)cc1 (stereo unspecified)
Reply text: 0.0114

---

# condition notes: in DMF, 298.18 K
quantity kind: solubility (mole fraction)

Inquiry: Give me measured solubility (mole fraction), please, for this compound: c1ccc(-c2ccc(C(c3ccccc3)n3ccnc3)cc2)cc1 (stereo unspecified)
Reply text: 0.0245

---

# condition notes: in ethanol, 318.2 K
quantity kind: solubility (mole fraction)
Give your answer as a number; write no unit.

Inquiry: Give me measured solubility (mole fraction), please, for this molecule: c1ccc(-c2ccc(C(c3ccccc3)n3ccnc3)cc2)cc1 (stereo unspecified)
Reply text: 0.0122

---

# condition notes: in n-propanol, 298.18 K
quantity kind: solubility (mole fraction)
Give your answer as a number; write no unit.

Inquiry: Give me measured solubility (mole fraction), please, for this compound: c1ccc(-c2ccc(C(c3ccccc3)n3ccnc3)cc2)cc1 (stereo unspecified)
Reply text: 0.00719

---

# condition notes: in isopentanol, 318.15 K
quantity kind: solubility (mole fraction)
Give your answer as a number; write no unit.

Inquiry: Give me measured solubility (mole fraction), please, for this compound: c1ccc(-c2ccc(C(c3ccccc3)n3ccnc3)cc2)cc1 (stereo unspecified)
Reply text: 0.0216

---

# condition notes: in n-propanol, 323.17 K
quantity kind: solubility (mole fraction)
Give your answer as a number; write no unit.

Inquiry: Give me measured solubility (mole fraction), please, for this compound: c1ccc(-c2ccc(C(c3ccccc3)n3ccnc3)cc2)cc1 (stereo unspecified)
Reply text: 0.0211

---

# condition notes: in ethyl acetate, 293.17 K
quantity kind: solubility (mole fraction)

Inquiry: Give me measured solubility (mole fraction), please, for this compound: c1ccc(-c2ccc(C(c3ccccc3)n3ccnc3)cc2)cc1 (stereo unspecified)
Reply text: 0.00385

---

# condition notes: in n-pentanol, 318.16 K
quantity kind: solubility (mole fraction)
Give your answer as a number; write no unit.

Inquiry: Give me measured solubility (mole fraction), please, for this compound: c1ccc(-c2ccc(C(c3ccccc3)n3ccnc3)cc2)cc1 (stereo unspecified)
Reply text: 0.0234

---

# condition notes: in DMF, 283.17 K
quantity kind: solubility (mole fraction)

Inquiry: Give me measured solubility (mole fraction), please, for this compound: c1ccc(-c2ccc(C(c3ccccc3)n3ccnc3)cc2)cc1 (stereo unspecified)
Reply text: 0.0149

---

# condition notes: in isopentanol, 323.24 K
quantity kind: solubility (mole fraction)
Give your answer as a number; write no unit.

Inquiry: Give me measured solubility (mole fraction), please, for this molecule: c1ccc(-c2ccc(C(c3ccccc3)n3ccnc3)cc2)cc1 (stereo unspecified)
Reply text: 0.0281

---

# condition notes: in ethyl acetate, 313.1 K
quantity kind: solubility (mole fraction)
Give your answer as a number; write no unit.

Inquiry: Give me measured solubility (mole fraction), please, for this compound: c1ccc(-c2ccc(C(c3ccccc3)n3ccnc3)cc2)cc1 (stereo unspecified)
Reply text: 0.00892

---

# condition notes: in isopropanol, 288.14 K
quantity kind: solubility (mole fraction)
Give your answer as a number; write no unit.

Inquiry: Give me measured solubility (mole fraction), please, for this compound: c1ccc(-c2ccc(C(c3ccccc3)n3ccnc3)cc2)cc1 (stereo unspecified)
Reply text: 0.00173

---

# condition notes: in n-butanol, 308.23 K
quantity kind: solubility (mole fraction)
Give your answer as a number; write no unit.

Inquiry: Give me measured solubility (mole fraction), please, for this molecule: c1ccc(-c2ccc(C(c3ccccc3)n3ccnc3)cc2)cc1 (stereo unspecified)
Reply text: 0.0132

---

# condition notes: in n-propyl acetate, 308.17 K
quantity kind: solubility (mole fraction)
Give your answer as a number; write no unit.

Inquiry: Give me measured solubility (mole fraction), please, for this compound: c1ccc(-c2ccc(C(c3ccccc3)n3ccnc3)cc2)cc1 (stereo unspecified)
Reply text: 0.00683

---

# condition notes: in isopropanol, 298.18 K
quantity kind: solubility (mole fraction)

Inquiry: Give me measured solubility (mole fraction), please, for this compound: c1ccc(-c2ccc(C(c3ccccc3)n3ccnc3)cc2)cc1 (stereo unspecified)
Reply text: 0.00285

---

# condition notes: in n-butyl acetate, 283.13 K
quantity kind: solubility (mole fraction)
Give your answer as a number; write no unit.

Inquiry: Give me measured solubility (mole fraction), please, for this compound: c1ccc(-c2ccc(C(c3ccccc3)n3ccnc3)cc2)cc1 (stereo unspecified)
Reply text: 0.00191
